// reported EC50 per item
# Measured target: Hexokinase-4 (Homo sapiens)
# Sequence (P35557 whole entry): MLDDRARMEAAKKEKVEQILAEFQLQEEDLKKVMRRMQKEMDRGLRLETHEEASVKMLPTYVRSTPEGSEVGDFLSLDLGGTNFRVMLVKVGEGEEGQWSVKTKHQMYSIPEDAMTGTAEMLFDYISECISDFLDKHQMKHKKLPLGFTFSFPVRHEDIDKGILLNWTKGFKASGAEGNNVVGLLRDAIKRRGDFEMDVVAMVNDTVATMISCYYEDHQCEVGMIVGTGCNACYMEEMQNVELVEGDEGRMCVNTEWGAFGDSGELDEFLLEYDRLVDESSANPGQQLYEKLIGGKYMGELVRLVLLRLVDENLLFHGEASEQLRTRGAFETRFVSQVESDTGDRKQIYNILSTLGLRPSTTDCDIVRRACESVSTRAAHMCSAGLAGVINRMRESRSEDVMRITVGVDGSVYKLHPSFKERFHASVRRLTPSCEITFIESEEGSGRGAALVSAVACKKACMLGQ
# Measurement notes: Activation of flag-tagged human recombinant liver glucokinase expressed in Escherichia coli by glucose-6-phosphate dehydrogenase coupled continuous spectrophotometric assay in presence of 2.5 mM glucose
Respond numerically; units are µM and should not be typed.

CC(CN)Oc1cc(Oc2ccc(S(C)(=O)=O)cc2)cc(C(=O)Nc2nccs2)c1 (racemic) has a reported EC50 of 1.5

`CS(=O)(=O)c1ccc(Oc2cc(O[C@@H]3CCC[C@H]3O)cc(C(=O)Nc3nccs3)c2)cc1` has a reported EC50 of 3.7

`CS(=O)(=O)c1ccc(Oc2cc(OCCO)cc(C(=O)Nc3nccs3)c2)cc1` has a reported EC50 of 0.78

CC(CCO)Oc1cc(Oc2ccc(S(C)(=O)=O)cc2)cc(C(=O)Nc2nccs2)c1 (racemic) has a reported EC50 of 0.15

Cc1csc(NC(=O)c2cc(Oc3ccc(S(C)(=O)=O)cc3)cc(OC(C)C(=O)O)c2)n1 (racemic) has a reported EC50 of 30
